Entry source: paper PMC4304654

# TEST_DESCRIPTION: Aqueous solubility in the sodium acetate buffer of the fibrillization assay
# Format: physicochemical
ASSAY_READOUT: solubility (µM)

CCOC(=O)c1nn(-c2cccc(Cl)c2)c(=O)c2c(N)scc12 | 32
CC(C)NC(=O)c1nn(-c2cccc(Cl)c2)c(=O)c2c(N)scc12 | 32
CC(C)c1ccc(-n2nc(C(=O)NC3CC3)c3csc(N)c3c2=O)cc1 | 80
Cc1nn(-c2ccc(Cl)cc2)c(=O)c2c(N)scc12 | 80
CC(C)NC(=O)c1nn(-c2ccc(OC(F)(F)F)cc2)c(=O)c2c(N)scc12 | 80

P: Nc1scc2c(C(=O)O)nn(-c3cccc(Cl)c3)c(=O)c12
Q: Nc1scc2c(C(=O)NC3CC3)nn(-c3ccc(C(F)(F)F)cc3)c(=O)c12
In the pair P and Q , the larger recorded solubility belongs to which? Which one? Tell me its label.
Q
(Q: 80 µM, P: 32 µM)
